- System: Klebsiella aerogenes DSM 30053
- assay name: fold change of Histamine concentration vs plate DMSO controls (fold change (ratio)); higher = more amine produced, active = hit call of the paper (significant change in both replicates, either direction)
- condition set: incubation time: 27 h, anaerobic, 37 °C
Counter-ions that a name gives are not always drawn.
endpoint: fold change of Histamine concentration
Give the value as a plain number.

Here is how some molecules turned out for fold change of Histamine concentration.
[[record]]
molecule = "CCN1CC(CCN2CCOCC2)C(c2ccccc2)(c2ccccc2)C1=O (configuration not stated) [Doxapram hydrochloride] (20 µM)"
endpoint = "fold change of Histamine concentration"
reported = 0.932

[[record]]
molecule = "CC(=O)Nc1ccc(C(=O)O)cc1 [Acedoben] (20 µM)"
endpoint = "fold change of Histamine concentration"
reported = 1.02

[[record]]
molecule = "CN(C)CCCN1c2ccccc2CCc2ccc(Cl)cc21 [Clomipramine hydrochloride] (20 µM)"
endpoint = "fold change of Histamine concentration"
reported = 1.04

[[record]]
molecule = "COc1ccccc1Oc1c(NS(=O)(=O)c2ccc(C(C)(C)C)cc2)nc(-c2ncccn2)nc1OCCO [Bosentan] (20 µM)"
endpoint = "fold change of Histamine concentration"
reported = 0.938

[[record]]
molecule = "C=C1CC[C@H](O)C/C1=C/C=C1\\CCC[C@]2(C)[C@@H]([C@H](C)CCCC(C)C)CC[C@@H]12 [Cholecalciferol] (20 µM)"
endpoint = "fold change of Histamine concentration"
reported = 1.08

[[record]]
molecule = "Cc1cccc(C)c1NC(=O)C(C)N (configuration not stated) [Tocainide hydrochloride] (20 µM)"
endpoint = "fold change of Histamine concentration"
reported = 1.06


Please give measured fold change of Histamine concentration of the following entry: CCCCCCCC/C=C\CCCCCCCC(N)=O [Oleamide] (20 µM)
0.969

Please give measured fold change of Histamine concentration of the following entry: COC(=O)C1=C(C)NC(C)=C(C(=O)OC)C1c1ccccc1[N+](=O)[O-] [Nifedipine] (20 µM)
1.05

Please give measured fold change of Histamine concentration of the following entry: CN(C)CCCN1c2ccccc2Sc2ccc(C(F)(F)F)cc21 [Triflupromazine hydrochloride] (20 µM)
0.959

Please give measured fold change of Histamine concentration of the following entry: COCC(=O)Nc1c(I)c(C(=O)NCC(O)CO)c(I)c(C(=O)N(C)CC(O)CO)c1I (configuration not stated) [Iopromide] (20 µM)
1.01

Please give measured fold change of Histamine concentration of the following entry: C#CCN[C@@H]1CCc2ccccc21 [Rasagiline] (20 µM)
1.02

----------
The entries below are paired with their reported growth.
- System: Clostridium sporogenes DSM 1664
- assay name: growth (OD595) fold change vs plate DMSO controls (fold change (ratio)); higher = more growth
- condition set: incubation time: 27 h, anaerobic, 37 °C
Structures can show the parent of a compound that is named as a salt.
Give the value as a plain number.

Here is how some compounds turned out for growth.
[[record]]
compound = "CN(C)CCN(Cc1cccs1)c1ccccn1 [Methapyrilene hydrochloride] (20 µM)"
reported = 1.04

[[record]]
compound = "CC(=O)S[C@@H]1CC2=CC(=O)CC[C@]2(C)[C@H]2CC[C@@]3(C)[C@@H](CC[C@@]34CCC(=O)O4)[C@H]12 [Spironolactone] (20 µM)"
reported = 1.1

[[record]]
compound = "NC(=O)Cc1cccc(C(=O)c2ccccc2)c1N [Nepafenac] (20 µM)"
reported = 1.01


Now let's try a different one.
Please give measured growth of the following entry: COC(=O)CCc1ccc(OCC(O)CNC(C)C)cc1 (centres undefined) [Esmolol hydrochloride] (20 µM)
0.978

----------
- Test system: Clostridium sporogenes DSM 1664
- assay name: growth (OD595) fold change vs plate DMSO controls (fold change (ratio)); higher = more growth
- condition set: incubation time: 27 h, anaerobic, 37 °C
Counter-ions that a name gives are not always drawn.
endpoint: growth
Give the value as a plain number.

Here is how some compounds turned out for growth.
[[record]]
compound = "CCC(=O)O[C@]1(C(=O)CCl)[C@@H](C)C[C@H]2[C@@H]3CCC4=CC(=O)C=C[C@]4(C)[C@@]3(F)[C@@H](O)C[C@@]21C [Clobetasol propionate] (20 µM)"
endpoint = "growth"
reported = 1.36

[[record]]
compound = "CN(C)CCOC(=O)C(c1ccccc1)C1(O)CCCC1 (stereo not given) [Cyclopentolate hydrochloride] (20 µM)"
endpoint = "growth"
reported = 0.823


Please give measured growth of the following entry: OCCOCCN1CCN(C2=Nc3ccccc3Sc3ccccc32)CC1 [Quetiapine hemifumarate] (20 µM)
0.966

Please give measured growth of the following entry: O=C(c1cc(O)c(O)c(O)c1)c1ccc(O)c(O)c1O [Exifone] (20 µM)
1.09

Please give measured growth of the following entry: CC(N/C(=N\C#N)Nc1ccncc1)C(C)(C)C (stereo not given) [Pinacidil monohydrate] (20 µM)
0.925

Please give measured growth of the following entry: CC(C)(C)NC(=O)[C@@H]1C[C@@H]2CCCC[C@@H]2CN1C[C@@H](O)[C@H](Cc1ccccc1)NC(=O)[C@H](CC(N)=O)NC(=O)c1ccc2ccccc2n1 [Saquinavir mesylate] (20 µM)
0.98

----------
The entries below are paired with their reported growth.
- Tested on: Escherichia coli IAI1
- assay name: growth (OD595) fold change vs plate DMSO controls (fold change (ratio)); higher = more growth
- condition set: incubation time: 27 h, anaerobic, 37 °C
Where a name gives a salt, the structure may show the parent alone.
Give the value as a plain number.

Here is how some compounds turned out for growth.
[[record]]
compound = "CN(C)CCC=C1c2ccccc2C=Cc2ccccc21 [Cyclobenzaprine hydrochloride] (20 µM)"
study_system = "Escherichia coli IAI1"
reported = 1.01

[[record]]
compound = "C[C@@H](O)[C@H]1C(=O)N2C(C(=O)O)=C(S[C@@H]3CN[C@H](C(=O)N(C)C)C3)[C@H](C)[C@H]12 [Meropenem] (20 µM)"
study_system = "Escherichia coli IAI1"
reported = 0.0127

[[record]]
compound = "O=C(Oc1ccccc1)n1c(C(F)(F)F)nc2cc(Cl)c(Cl)cc21 (20 µM)"
study_system = "Escherichia coli IAI1"
reported = 0.604

[[record]]
compound = "CC(C)(C)C(=O)OCOC(=O)[C@@H]1N2C(=O)[C@@H](NC(=O)[C@H](N)c3ccccc3)[C@H]2SC1(C)C [Pivampicillin] (20 µM)"
study_system = "Escherichia coli IAI1"
reported = 0.949

[[record]]
compound = "COC(c1ccccc1)(c1ccccc1)[C@H](Oc1nc(C)cc(C)n1)C(=O)O [Ambrisentan] (20 µM)"
study_system = "Escherichia coli IAI1"
reported = 1.2


Please give measured growth of the following entry: COc1cc2/c(=N/c3ccc(Br)cc3F)nc[nH]c2cc1OCC1CCN(C)CC1 [Vandetanib] (20 µM)
1.07

Please give measured growth of the following entry: C=C1CC[C@H](O)C/C1=C/C=C1\CCC[C@]2(C)[C@@H]([C@H](C)CCCC(C)C)CC[C@@H]12 [Cholecalciferol] (20 µM)
0.971

Please give measured growth of the following entry: c1ccc2[nH]c(-c3cscn3)nc2c1 [Tiabendazole] (20 µM)
0.991

Please give measured growth of the following entry: CCC(C)(CN(C)C)OC(=O)c1ccccc1 (stereo unspecified) [Amyleine hydrochloride] (20 µM)
1.01

Please give measured growth of the following entry: Nc1nc2c(ncn2COCCO)c(=O)[nH]1 [Acyclovir] (20 µM)
1.05

Please give measured growth of the following entry: COc1ccccc1N1CCN(CC(O)COc2cccc3ccccc23)CC1 (stereo unspecified) [Naftopidil dihydrochloride] (20 µM)
0.99

Please give measured growth of the following entry: CC/C(=C(/CC)c1ccc(O)cc1)c1ccc(O)cc1 [Diethylstilbestrol] (20 µM)
0.984

Please give measured growth of the following entry: CC(CCc1ccc(O)cc1)NCCc1ccc(O)c(O)c1 (stereo unspecified) [Dobutamine hydrochloride] (20 µM)
0.997

Please give measured growth of the following entry: CC1=C(/C=C/C(C)=C/C=C/C(C)=C/C(=O)O)C(C)(C)CCC1 [Retinoic acid] (20 µM)
0.973

Please give measured growth of the following entry: C[C@@H](c1ncncc1F)[C@](O)(Cn1cncn1)c1ccc(F)cc1F [Voriconazole] (20 µM)
0.997

Please give measured growth of the following entry: CC(C)(C)NCC(O)CSc1nc(-c2ccc(C(N)=O)s2)cs1 (stereo unspecified) [Arotinolol hydrochloride] (20 µM)
1.02

----------
- Test system: Clostridium sporogenes DSM 1664
- assay name: fold change of Tryptamine concentration vs plate DMSO controls (fold change (ratio)); higher = more amine produced, active = hit call of the paper (significant change in both replicates, either direction);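 for the amine columns active = adjusted P below 0.05 in both replicates with a change the same way and a mean fold change under 0.8 or over 1.25; inactive = the rest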
- condition set: incubation time: 27 h, anaerobic, 37 °C
Counter-ions that a name gives are not always drawn.
Thanks in advance; please answer with one of these: active, inactive

Some entries whose results are on file:
[[record]]
compound = "Cc1c(NC(=O)c2cccnc2)c(=O)n(-c2ccccc2)n1C [Nifenazone] (20 µM)"
study_system = "Clostridium sporogenes DSM 1664"
cat = "active"

[[record]]
compound = "C#C[C@]1(O)CC[C@H]2[C@@H]3CCC4=CC(=O)CC[C@@H]4[C@H]3CC[C@@]21CC [(D-) Norgestrel] (20 µM)"
study_system = "Clostridium sporogenes DSM 1664"
cat = "inactive"

[[record]]
compound = "CN(C)CCOC(c1ccccc1)c1ccccc1 [Diphenhydramine hydrochloride] (20 µM)"
study_system = "Clostridium sporogenes DSM 1664"
cat = "inactive"

[[record]]
compound = "N=C(N)NCC1COC2(CCCCC2)O1 (stereo not drawn) [Guanadrel sulfate] (20 µM)"
study_system = "Clostridium sporogenes DSM 1664"
cat = "inactive"

[[record]]
compound = "N=C(N)NC(=O)Cc1c(Cl)cccc1Cl [Guanfacine hydrochloride] (20 µM)"
study_system = "Clostridium sporogenes DSM 1664"
cat = "inactive"


Any idea what this test logged for C[C@H](CCC(=O)O)[C@H]1CC[C@H]2[C@@H]3CC[C@@H]4C[C@H](O)CC[C@]4(C)[C@H]3CC[C@]12C [Lithocholic acid] (20 µM) ?
inactive

Any idea what this test logged for C[C@@H](O)[C@H]1C(=O)N2C(C(=O)O)=C(SCCNC=N)C[C@H]12 [Imipenem] (20 µM) ?
active

Any idea what this test logged for N=C(N)Nc1ccc(C(=O)Oc2ccc3cc(C(=N)N)ccc3c2)cc1 [Nafamostat Mesylate] (20 µM) ?
inactive
